- TEST TARGET: Recombinant His-tagged Pfs25, P13829
- EXPERIMENT DESCRIPTION: BLI
- SETTINGS: chain shown with the change; immobilized Pfs25 and mutant Fab analyte; parent: est. 4.6; read off a plot

- BINDER: "2544 Fab κC:T91A (protein) chain 1: EVQLVESGGGLVQPGGSLRLSCVASGFTFSNYNMNWVRQAPGKGLEWLSYISSSSGTIYYADSVKGRFTISRDNAKNSMYLQMNSLRAEDTAVYYCVRVEYYYGSSGYYYDFDSWGQGTLVTVSS chain 2: DIVMTQSPLSLPVTPGEPASISCRSSQSLLHNGYNYLDWYLQKPGQSPQLLIYLGSNRASGVPDRFSGSGSGTDFTLKISRVEAEDVGVYYCMQALQPFTFGQGTRLEIK"
  Kd / nM: 12
